Entry source: PubChem BioAssay (NCI)

- protocolDescription: NCI Yeast Anticancer Drug Screen. Data for the bub3 strain (AID 167)
- details: S. cerevisiae bub3 mutant strain, at 100.0 µM
This is part of a sample that, as a whole, favours compounds with a hit. Of some 79,000 tested, about 15% had one in any assay. The source made the active and inactive calls. Cut-off read from the data, not from the text of the source: active = growth inhibition above about 70%; inactive = the rest.
Give your call using only these classes: active, inactive

C[n+]1c(/C=C/c2ccc(/C=N/NC(=O)c3ccc(C(=O)N/N=C/c4ccc(/C=C/c5cn6ccccc6[n+]5C)cc4)cc3)cc2)cn2ccccc21 | active
CC/C(=C(\c1ccccc1)c1ccc(OCC[N+](C)(C)C)cc1)c1ccccc1 | active
O=C(O)c1c2ccc(Cl)cc2nc2[nH]c(=O)[nH]c(=O)c12 | inactive
c1ccc2c(c1)N=C1CCCC3CCCC123 (centres undefined) | active
O=c1cccccc1[O-].O=c1cccccc1[O-].O=c1cccccc1[O-].[Eu+3] | active
ClCCCOc1c(Cl)cc(Cl)cc1Cl | inactive
COc1cc2c(cc1OC)[C@@H](Nc1ccc(C#N)cc1)C1COC(=O)[C@@H]1C2c1cc(OC)c(O)c(OC)c1 (some centres undefined) | active
CC(C)OC(=O)NNc1c(Cl)cc(Cl)cc1Cl | active
CCC[CH2][Sn]([CH2]CCC)([CH2]CCC)/[C](=C/[Si](C)(C)c1ccccc1)c1ccc2c(c1)OCO2 | active
CCOP(=O)(OCC)/C(C#N)=C/c1ccc(-c2ccc(F)cc2F)o1 | inactive

Short answer needed: outcome of this test for O=C(O)C(=Cc1ccc(-c2ccccc2)cc1)C(=O)O ?
active

# repeat for CC(C)NCCCNc1c2ccccc2nc2cccc([N+](=O)[O-])c12
active

Thanks! And Nc1cccc(-c2cc[cH-]c2)c1.[Fe+2].c1cc[cH-]c1 ?
active

// next record O=C1SS(=O)c2ccccc21 (centres undefined)
active

Can you handle NNc1ccccc1-c1nc2ccccc2[nH]1 next?
inactive

Okay, and COc1cc(NCCCCNCC(C)(C)C)c2ncccc2c1 ?
inactive

Please give the result for O=C1Nc2ccc(Br)cc2C1=Nc1cccnc1 too.
active

====

- protocolDescription: NCI Yeast Anticancer Drug Screen. Data for the mgt1 strain (AID 153)
- details: S. cerevisiae mgt1 mutant growth inhibition; at 1.2 µM; hits give high values
About 79,000 compounds went through this panel and 15% of them were active in at least one assay; those are over-represented in the sample as a whole.
Reported growth inhibition by item:
Provide the reading as a plain figure in %.

O=C(NC(N1CCN(c2cc3c(cc2F)c(=O)c(C(=O)O)cn3C2CC2)CC1)(C(F)(F)F)C(F)(F)F)c1ccccc1 | -1
CCCCS/C(=C(/C#N)C(N)=O)c1cc2c([nH]1)CCCC2 | -7

Value lookup for growth inhibition; key = CN(C)CCNc1ccc2ncn3c4ccc(O)cc4c(=O)c1c23
-5

Another molecule to look at: O=C(O)c1cc2c(cc1S(=O)(=O)O)C1C(C3C2C2(Cl)C(Cl)=C(Cl)C3(Cl)C2(Cl)Cl)C2(Cl)C(Cl)=C(Cl)C1(Cl)C2(Cl)Cl (stereo not drawn)
2

Would you kindly repeat that for [N-]=[N+]=NC1(c2ccccc2)C(=O)Nc2ccccc2C1=O (stereo not drawn) ?
-3

====

Entries and their growth inhibition
- protocolDescription: NCI Yeast Anticancer Drug Screen. Data for the rad50EPP+ strain (AID 151);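 note: 0% = growth of vehicle-treated control cultures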
- details: S. cerevisiae rad50 mutant strain, at 1.2 µM, hits give high values
This is part of a sample that, as a whole, favours compounds with a hit. Of some 79,000 tested, about 15% had one in any assay.
Just the number please, in %, no unit attached.

O=C(NOC(=O)c1ccc([N+](=O)[O-])cc1)c1ccc(Cl)cc1 | -19
CN(CCOc1ccc(Cl)cc1)CCOc1ccc(Cl)cc1 | 4
O=C1C2=C(c3ccccc31)C(c1ccccc1)N1C(=O)CSC1=N2 (stereo unspecified) | 9
Cc1cccc(C)c1NC(=O)C(C#N)C1=C(Cl)C(=O)c2ccccc2C1=O (stereo unspecified) | 14
O=[N+]([O-])c1ccc2nc(=S)[nH]n2c1 | 0
O=C(C#Cc1ccccc1)/C=C/c1ccccc1 | 1
c1ccc2nc3c(nc2c1)sc1ccccc13 | 41
CCN(CC)C(=S)N/N=C(\C)c1ccccc1O | 9

For the compound shown here, N#CCCC1C(C#N)C2(Cl)CC1(Cl)C(Cl)=C2Cl (stereo unspecified) , give the reported growth inhibition.
-4

Would you kindly repeat that for O=C1C(/C=C/c2ccc(Cl)cc2)=NNC2N1N=C1NC(=O)C3(NN12)c1ccccc1-c1ccccc13 (stereo unspecified) ?
-1

How about this compound: Cn1c(-c2ccc(/C=N\N3CCN(/N=C/c4ccc(-c5c[n+]6ccsc6n5C)cc4)CC3)cc2)c[n+]2ccsc12
30
